test: IN Cell qHTS Assay for Inhibitors of the mTORC1 Signaling Pathway in MEF (Tsc2-/-, p53-/-) Cells: Sytravon; conditions: phospho-rpS6 immunofluorescence, 24 h; series mostly up to 38.3 µM; note: nearly all actives have a fitted effect of over 60% in size
Screen size: about 2,100 compounds; about 210 (10%) were called active. About 53% were inconclusive and are not listed. Calls come from the whole dose curve; as a rule, active = well fitted inhibition curve with a large enough effect; inconclusive = small, poorly fitted or top-dose-only effect, or effect the other way; inactive = no such curve, though single readings can be large or run the other way. The list shows a part of the results.
Write down one outcome, taken from yes (active), no (inactive)

Data request: Which outcome did this test record for the molecule COC(=O)c1sccc1S(=O)(=O)N(CC(=O)Nc1ccc(C)cc1)c1ccccc1 ?
Data returned: no

Data request: Which outcome did this test record for the molecule CCOC(=O)c1c(C)[nH]c(CCC(=O)Nc2cc(C)cc(C)c2)c1C ?
Data returned: no

Data request: Which outcome did this test record for the molecule Cc1ccc(Nc2nc(Nc3ccc(C)c(C)c3)nc(N3CCOCC3)n2)cc1C ?
Data returned: yes

Data request: Which outcome did this test record for the molecule CN(C)S(=O)(=O)c1ccc(C(=O)Nc2ccc(-n3nncc3-c3ccccc3)cc2)cc1 ?
Data returned: no

Data request: Which outcome did this test record for the molecule CC(C)c1ccc(NC(=O)c2ccc(F)c(S(=O)(=O)N3CCN(c4ccccc4F)CC3)c2)cc1 ?
Data returned: no

Data request: Which outcome did this test record for the molecule Cc1cn2c(=O)cc(COC(=O)c3ccc(NC(=O)COc4ccccc4C)cc3)nc2s1 ?
Data returned: no

Data request: Which outcome did this test record for the molecule CCN(c1ccccc1)S(=O)(=O)c1ccc(NC(=O)c2nc(S(C)(=O)=O)ncc2Cl)cc1 ?
Data returned: yes

Data request: Which outcome did this test record for the molecule CCOC(=O)c1c(C)[nH]c(CCC(=O)NCc2ccc(OC)cc2OC)c1C ?
Data returned: no

Data request: Which outcome did this test record for the molecule CN(c1ccccc1)S(=O)(=O)c1ccc(NC(=O)c2nc(S(C)(=O)=O)ncc2Cl)cc1 ?
Data returned: yes

Data request: Which outcome did this test record for the molecule COc1ccc(-c2nc(CN3CCC(C(=O)NCCCN4CCN(c5ccccc5F)CC4)CC3)c(C)o2)cc1OC ?
Data returned: yes

All values here come from PubChem BioAssay AID504465.
